- System: 931267-113-T-J1-PDC multicell spheroid viability
- protocol.details: Anticancer human tumor 931267-113-T-J1-PDC patient-derived colon adenocarcinoma cell line growth inhibition [PI3K]
- run.parameters: compound 1 µM; active compounds read low
Here the recorded viability, T/C is given for each entry.

Below, 2 compounds whose answers are already recorded.
Field request: viability, T/C | item: Cn1nccc1Nc1nccc(-c2ccn(C(CO)c3ccc(Cl)c(F)c3)c(=O)c2)n1 (stereo not given) 74.1% [middle of 4 runs]

Repeat with `C[C@@H](NC(=O)c1ncnc(N)c1Cl)c1ncc(C(=O)Nc2cc(C(F)(F)F)c(Cl)cn2)s1` 114% [middle of 4 runs]

New cases:
Field request: viability, T/C | item: CC(Nc1ccc2c(c1)OCCn1cc(N3C(=O)OCC3C(F)F)nc1-2)C(N)=O (stereo not given) 83.1% [middle of 8 runs]

Repeat with CC1(C)CCC(Nc2ncc(C(F)(F)F)c(-c3c[nH]c4c(P(C)(C)=O)c(C#N)ccc34)n2)CN1 (stereo not given) 85.7% [middle of 4 runs]

----------
- Test system: 931267-113-T-J1-PDC multicell spheroid viability
- protocol.details: Anticancer human tumor 931267-113-T-J1-PDC cell line growth inhibition [PI3K];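 further: viability read 7 days after compound addition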
- run.parameters: second compound 0.316 µM; first compound 0.1 µM; active compounds read low
readout.label: viability, T/C (%)
Return type: number; implicit unit %.

Below, 4 compounds whose answers are already recorded.
Field request: viability, T/C | item: Cn1ncc(Cl)c1-c1cc(C(=O)NC(CN)Cc2cccc(F)c2)sc1Cl (stereo not given) + Cc1nc(NC(=O)N2CCCC2C(N)=O)sc1-c1ccnc(C(C)(C)C(F)(F)F)c1 94

Repeat with CC1(C)CCC(Nc2ncc(C(F)(F)F)c(-c3c[nH]c4c(P(C)(C)=O)c(C#N)ccc34)n2)CN1 (stereo not given) + CC(Nc1ncnc2nc[nH]c12)c1cc2cccc(Cl)c2c(=O)n1-c1ccccc1 104

Repeat with CNC(=O)c1ccc(N2C(=S)N(c3ccc(C#N)c(C(F)(F)F)c3)C(=O)C2(C)C)cc1F + Cc1nc(NC(=O)N2CCCC2C(N)=O)sc1-c1ccnc(C(C)(C)C(F)(F)F)c1 75.9

Repeat with CC(C)n1nc(-c2ccc3oc(N)nc3c2)c2c(N)ncnc21 + COc1c(OCCCN2CCOCC2)ccc2c3n(c(=NC(=O)c4cnc(N)nc4)nc12)CCN3 29

Now consider the entry below.
Field request: viability, T/C | item: CC1(C)CCC(Nc2ncc(C(F)(F)F)c(-c3c[nH]c4c(P(C)(C)=O)c(C#N)ccc34)n2)CN1 (stereo not given) + COc1c(OCCCN2CCOCC2)ccc2c3n(c(=NC(=O)c4cnc(N)nc4)nc12)CCN3 44.8

----------
- System: 931267-113-T-J1-PDC multicell spheroid viability
- protocol.details: Anticancer human tumor 931267-113-T-J1-PDC cell line growth inhibition [PI3K];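 further: viability read 7 days after compound addition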
- run.parameters: second compound 0.0316 µM; first compound 1 µM; active compounds read low
readout.label: viability, T/C (%)
Return type: number; implicit unit %.

Look up viability, T/C with 931267-113-T-J1-PDC multicell spheroid viability for this molecule: C=CC(=O)N1CCN(c2nc(=O)n(-c3c(C)ccnc3C(C)C)c3nc(-c4c(O)cccc4F)c(F)cc23)C(C)C1 (stereo not drawn) + COc1c(OCCCN2CCOCC2)ccc2c3n(c(=NC(=O)c4cnc(N)nc4)nc12)CCN3 85.1

Repeat with CC(C)NCC(C(=O)N1CCN(c2ncnc3c2C(C)CC3O)CC1)c1ccc(Cl)cc1 (stereo not drawn) + Cc1nc(NC(=O)N2CCCC2C(N)=O)sc1-c1ccnc(C(C)(C)C(F)(F)F)c1 95.2

New cases:
Look up viability, T/C with 931267-113-T-J1-PDC multicell spheroid viability for this molecule: Cn1nccc1Nc1nccc(-c2ccn(C(CO)c3ccc(Cl)c(F)c3)c(=O)c2)n1 (stereo not drawn) + Cc1nc(NC(=O)N2CCCC2C(N)=O)sc1-c1ccnc(C(C)(C)C(F)(F)F)c1 77.2
